Each entry below carries its reported Inhibition Results (Level).
Molecular target: kinases of Table 5 (Homo sapiens, UniProt Q7KZI7)
Sequence (Q7KZI7 whole entry): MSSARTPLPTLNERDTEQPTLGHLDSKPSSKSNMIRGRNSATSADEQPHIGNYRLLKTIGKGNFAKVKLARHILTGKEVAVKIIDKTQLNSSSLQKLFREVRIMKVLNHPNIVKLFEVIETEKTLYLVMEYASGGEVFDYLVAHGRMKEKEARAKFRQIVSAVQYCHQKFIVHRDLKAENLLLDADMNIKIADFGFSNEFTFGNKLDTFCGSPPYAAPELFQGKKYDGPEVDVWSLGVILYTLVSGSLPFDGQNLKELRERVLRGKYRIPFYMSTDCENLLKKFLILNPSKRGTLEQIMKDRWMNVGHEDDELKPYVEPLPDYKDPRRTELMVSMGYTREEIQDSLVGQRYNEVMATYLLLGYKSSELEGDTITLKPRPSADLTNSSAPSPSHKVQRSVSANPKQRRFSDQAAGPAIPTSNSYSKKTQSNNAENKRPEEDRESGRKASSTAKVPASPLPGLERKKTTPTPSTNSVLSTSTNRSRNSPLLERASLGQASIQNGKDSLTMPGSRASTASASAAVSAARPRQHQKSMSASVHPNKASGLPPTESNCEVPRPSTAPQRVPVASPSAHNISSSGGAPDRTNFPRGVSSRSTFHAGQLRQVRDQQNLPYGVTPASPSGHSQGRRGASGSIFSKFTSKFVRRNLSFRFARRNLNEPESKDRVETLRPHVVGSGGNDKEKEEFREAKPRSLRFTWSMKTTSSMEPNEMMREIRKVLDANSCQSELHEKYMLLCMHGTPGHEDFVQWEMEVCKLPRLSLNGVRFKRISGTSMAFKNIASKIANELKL
Assay: Further analysis of a plurality of inhibitors and a plurality of kinases (Table 5 inhibition results)
Assay type: biochemical
Set-up: scale not given here
Conditions: kinase MARK2 (Part I, plate C4, Domain 1); inhibitor 100 uM
Source text: The wash solution is then discarded.
Field format: numeric only.

Solved cases below.
STRUCTURE_SMILES: N#C/C(=C/c1ccc(O)c(O)c1)C(=O)NCc1ccccc1
Inhibition Results (Level): 2
--
STRUCTURE_SMILES: O=S(=O)(NCCNC/C=C/c1ccc(Br)cc1)c1cccc2cnccc12
Inhibition Results (Level): 2
--
STRUCTURE_SMILES: Cn1cc(C2=C(c3cn(CCCSC(=N)N)c4ccccc34)C(=O)NC2=O)c2ccccc21
Inhibition Results (Level): 2
--
STRUCTURE_SMILES: COc1cc2ncnc(Nc3cccc(Cl)c3)c2cc1OC
Inhibition Results (Level): 2
--
STRUCTURE_SMILES: CC(=O)c1c(O)c(C)c(O)c(Cc2c(O)c3c(c(C(=O)/C=C/c4ccccc4)c2O)OC(C)(C)C=C3)c1O
Inhibition Results (Level): 2

Tell me reported Inhibition Results (Level) for O=c1c(-c2ccc(O)cc2)coc2cc(O)cc(O)c12 , tested with kinases of Table 5 (Homo sapiens, UniProt Q7KZI7).
2

For kinases of Table 5 (Homo sapiens, UniProt Q7KZI7), provide Inhibition Results (Level) of CC(C)(C)n1nc(-c2ccc(Cl)cc2)c2c(N)ncnc21 please.
2

---

target: kinases of Table 5 (Homo sapiens, UniProt Q9UQB9); assay: Further analysis of a plurality of inhibitors and a plurality of kinases (Table 5 inhibition results); assay type: biochemical; set-up: scale not given here; details: kinase STK13 (Part I, plate G11, Domain 1); inhibitor 100 uM
Sequence (Q9UQB9 whole entry): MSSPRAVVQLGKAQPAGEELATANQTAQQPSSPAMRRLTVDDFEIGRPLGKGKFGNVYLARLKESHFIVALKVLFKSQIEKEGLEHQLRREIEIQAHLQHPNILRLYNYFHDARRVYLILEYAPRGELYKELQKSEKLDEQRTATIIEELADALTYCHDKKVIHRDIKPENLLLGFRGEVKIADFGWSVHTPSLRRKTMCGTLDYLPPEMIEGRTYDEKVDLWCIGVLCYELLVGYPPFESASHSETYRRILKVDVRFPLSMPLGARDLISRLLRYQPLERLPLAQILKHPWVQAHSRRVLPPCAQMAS
Inhibition Results (Level) reference
Answer with a bare number; do not write a unit.

Observe how each entry below is paired with its result.
STRUCTURE_SMILES: Cn1cc(C2=C(c3cn(CCCSC(=N)N)c4ccccc34)C(=O)NC2=O)c2ccccc21
Inhibition Results (Level): 2
//
STRUCTURE_SMILES: CC(=O)c1c(O)c(C)c(O)c(Cc2c(O)c3c(c(C(=O)/C=C/c4ccccc4)c2O)OC(C)(C)C=C3)c1O
Inhibition Results (Level): 1
//
STRUCTURE_SMILES: O=S(=O)(NCCNC/C=C/c1ccc(Br)cc1)c1cccc2cnccc12
Inhibition Results (Level): 1

I have this compound here, O=c1c(-c2ccc(O)cc2)coc2cc(O)cc(O)c12 , and I need its recorded Inhibition Results (Level).
2

---

target: kinases of Table 5 (Homo sapiens); experiment: Further analysis of a plurality of inhibitors and a plurality of kinases (Table 5 inhibition results); assay type: biochemical; set-up: scale not given here; details: kinase STK4; inhibitor 100 uM
VALUE_TYPE: Inhibition level

STRUCTURE_SMILES: Cn1cc(C2=C(c3cn(CCCSC(=N)N)c4ccccc34)C(=O)NC2=O)c2ccccc21
Inhibition level: 2

Form field: Inhibition level recorded for CC(C)(C)n1nc(-c2ccc(Cl)cc2)c2c(N)ncnc21 with kinases of Table 5 (Homo sapiens) (enter value)
2

Give kinases of Table 5 (Homo sapiens) Inhibition level for COc1cc2ncnc(Nc3cccc(Cl)c3)c2cc1OC
1

Record lookup: for kinases of Table 5 (Homo sapiens), what Inhibition level belongs to O=c1c(-c2ccc(O)cc2)coc2cc(O)cc(O)c12 ?
0

Param readout = Inhibition level; param system = kinases of Table 5 (Homo sapiens); param query = N#C/C(=C/c1ccc(O)c(O)c1)C(=O)NCc1ccccc1 ; response: value
0

---

molecular target: kinases of Table 5 (Homo sapiens); assay: Further analysis of a plurality of inhibitors and a plurality of kinases (Table 5 inhibition results); assay type: biochemical; set-up: scale not given here; conditions: kinase PRKCH; inhibitor 100 uM
VALUE_TYPE: Inhibition level
Output spec: single numeric token, no unit.

Field request: Inhibition level | item: N#C/C(=C/c1ccc(O)c(O)c1)C(=O)NCc1ccccc1
2

Which Inhibition level value is on record for COc1cc2ncnc(Nc3cccc(Cl)c3)c2cc1OC ?
0

Which Inhibition level is listed for Cn1cc(C2=C(c3cn(CCCSC(=N)N)c4ccccc34)C(=O)NC2=O)c2ccccc21 ?
2

Quick one: Inhibition level for CC(C)(C)n1nc(-c2ccc(Cl)cc2)c2c(N)ncnc21 ?
2

Which Inhibition level value is on record for O=c1c(-c2ccc(O)cc2)coc2cc(O)cc(O)c12 ?
2

---

Item-by-item account of Inhibition Results (Level)
Biological target: kinases of Table 5 (Homo sapiens)
Sequence (P41743 1-596): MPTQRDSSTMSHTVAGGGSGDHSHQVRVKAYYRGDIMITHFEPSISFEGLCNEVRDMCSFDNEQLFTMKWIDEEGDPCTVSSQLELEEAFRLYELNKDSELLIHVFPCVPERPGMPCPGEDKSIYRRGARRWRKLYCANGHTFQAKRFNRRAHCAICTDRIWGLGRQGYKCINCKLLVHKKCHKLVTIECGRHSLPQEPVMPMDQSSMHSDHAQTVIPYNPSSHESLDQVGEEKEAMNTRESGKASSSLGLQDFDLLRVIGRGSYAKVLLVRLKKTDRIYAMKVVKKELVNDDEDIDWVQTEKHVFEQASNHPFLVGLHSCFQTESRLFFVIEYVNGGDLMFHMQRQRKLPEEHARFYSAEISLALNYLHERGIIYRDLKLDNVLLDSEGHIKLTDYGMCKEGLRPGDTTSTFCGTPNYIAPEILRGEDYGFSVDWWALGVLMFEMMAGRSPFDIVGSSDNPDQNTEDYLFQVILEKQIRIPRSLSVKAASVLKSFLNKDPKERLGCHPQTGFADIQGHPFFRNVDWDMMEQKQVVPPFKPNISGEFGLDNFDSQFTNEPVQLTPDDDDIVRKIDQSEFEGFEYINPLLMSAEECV
Test: Further analysis of a plurality of inhibitors and a plurality of kinases (Table 5 inhibition results)
Type: biochemical
Design: scale not given here
Settings: kinase PRKCI (Part I, plate A2, Domain 0); inhibitor 100 uM
# respond with the number and nothing more

STRUCTURE_SMILES: O=S(=O)(NCCNC/C=C/c1ccc(Br)cc1)c1cccc2cnccc12
ASSAY_TARGET: kinases of Table 5 (Homo sapiens)
Inhibition Results (Level): 2
//
STRUCTURE_SMILES: O=c1c(O)c(-c2ccc(O)c(O)c2)oc2cc(O)cc(O)c12
ASSAY_TARGET: kinases of Table 5 (Homo sapiens)
Inhibition Results (Level): 0
//
STRUCTURE_SMILES: CC(C)(C)n1nc(-c2ccc(Cl)cc2)c2c(N)ncnc21
ASSAY_TARGET: kinases of Table 5 (Homo sapiens)
Inhibition Results (Level): 1
//
STRUCTURE_SMILES: COc1cc2ncnc(Nc3cccc(Cl)c3)c2cc1OC
ASSAY_TARGET: kinases of Table 5 (Homo sapiens)
Inhibition Results (Level): 0
//
STRUCTURE_SMILES: N#C/C(=C/c1ccc(O)c(O)c1)C(=O)NCc1ccccc1
ASSAY_TARGET: kinases of Table 5 (Homo sapiens)
Inhibition Results (Level): 2
//
STRUCTURE_SMILES: O=c1c(-c2ccc(O)cc2)coc2cc(O)cc(O)c12
ASSAY_TARGET: kinases of Table 5 (Homo sapiens)
Inhibition Results (Level): 2

Would you kindly share the measured Inhibition Results (Level) for Cn1cc(C2=C(c3cn(CCCSC(=N)N)c4ccccc34)C(=O)NC2=O)c2ccccc21 ?
0

Look up Inhibition Results (Level) for this molecule: CC(=O)c1c(O)c(C)c(O)c(Cc2c(O)c3c(c(C(=O)/C=C/c4ccccc4)c2O)OC(C)(C)C=C3)c1O
2

---

molecular target: kinases of Table 5 (Homo sapiens); test: Further analysis of a plurality of inhibitors and a plurality of kinases (Table 5 inhibition results); type: biochemical; parameters: scale not given here; settings: kinase FER; inhibitor 100 uM
VALUE_TYPE: Inhibition level
Could you keep your reply to the number by itself?

Look up Inhibition level for this molecule: COc1cc2ncnc(Nc3cccc(Cl)c3)c2cc1OC
1

Any idea what its Inhibition level is? The molecule is CC(C)(C)n1nc(-c2ccc(Cl)cc2)c2c(N)ncnc21
2

Data request, read-out Inhibition level, for N#C/C(=C/c1ccc(O)c(O)c1)C(=O)NCc1ccccc1
2

Which Inhibition level is listed for O=c1c(-c2ccc(O)cc2)coc2cc(O)cc(O)c12 ?
2

Any idea what Inhibition level was measured for Cn1cc(C2=C(c3cn(CCCSC(=N)N)c4ccccc34)C(=O)NC2=O)c2ccccc21 ?
2

---

molecular target: kinases of Table 5 (Homo sapiens); test: Further analysis of a plurality of inhibitors and a plurality of kinases (Table 5 inhibition results); type: biochemical; parameters: scale not given here; conditions: kinase DAPK2; inhibitor 100 uM
Entries and their Inhibition level values follow.
Give the value as a plain number.

COMPOUND: N#C/C(=C/c1ccc(O)c(O)c1)C(=O)NCc1ccccc1 [AG 490]
Inhibition level: 2
--
COMPOUND: Cn1cc(C2=C(c3cn(CCCSC(=N)N)c4ccccc34)C(=O)NC2=O)c2ccccc21 [Ro-31-8220]
Inhibition level: 2
--
COMPOUND: COc1cc2ncnc(Nc3cccc(Cl)c3)c2cc1OC [AG 1478]
Inhibition level: 0
--
COMPOUND: CC(C)(C)n1nc(-c2ccc(Cl)cc2)c2c(N)ncnc21 [PP2]
Inhibition level: 2

We next turn to a different compound, shown below.
I have this compound here, O=c1c(-c2ccc(O)cc2)coc2cc(O)cc(O)c12 [Genistein] , and I need its recorded Inhibition level.
2
